- System Under Test: Human mTOR (FLAG-TOR) (Homo sapiens)
- Construct: FLAG
- Assay Method Text: Human mTOR kinase assay with purified enzyme, DELFIA format
- Format: biochemical
Recorded Metric: IC50 (nM)
Answers are plain numbers, in nM.

INSERT INTO measurements (compound, recorded_metric, recorded_result) VALUES
  ('CNC(=O)Nc1ccc(-c2nc(N3CC4CCC(C3)O4)c3cnn(C4CCC(O)CC4)c3n2)cc1 (stereo not shown) [Example 108]', 'IC50', 0.24),
  ('O=C(Nc1ccncc1)Nc1ccc(-c2nc(N3CC4CCC(C3)O4)c3cnn(C4CCC5(CC4)OCCO5)c3n2)cc1', 'IC50', 0.125);

State the recorded IC50 for every item in the following list.
1. CCNC(=O)Nc1ccc(-c2nc(N3CC4CCC(C3)O4)c3cnn(Cc4ccccc4)c3n2)cc1
2. CC(C)OC(=O)N1CCC(n2ncc3c(N4CC5CCC(C4)O5)nc(-c4ccc(NC(=O)NCCF)cc4)nc32)CC1

1. 2.6
2. 0.27

----------
- System Under Test: PI3K (Homo sapiens)
- Construct: PI3 Kinase γ IC50; other: PI3 Kinase γ; other: PI3 Kinase γ isoform, fluorescence polarization
- Sequence (P48736 whole entry, canonical isoform): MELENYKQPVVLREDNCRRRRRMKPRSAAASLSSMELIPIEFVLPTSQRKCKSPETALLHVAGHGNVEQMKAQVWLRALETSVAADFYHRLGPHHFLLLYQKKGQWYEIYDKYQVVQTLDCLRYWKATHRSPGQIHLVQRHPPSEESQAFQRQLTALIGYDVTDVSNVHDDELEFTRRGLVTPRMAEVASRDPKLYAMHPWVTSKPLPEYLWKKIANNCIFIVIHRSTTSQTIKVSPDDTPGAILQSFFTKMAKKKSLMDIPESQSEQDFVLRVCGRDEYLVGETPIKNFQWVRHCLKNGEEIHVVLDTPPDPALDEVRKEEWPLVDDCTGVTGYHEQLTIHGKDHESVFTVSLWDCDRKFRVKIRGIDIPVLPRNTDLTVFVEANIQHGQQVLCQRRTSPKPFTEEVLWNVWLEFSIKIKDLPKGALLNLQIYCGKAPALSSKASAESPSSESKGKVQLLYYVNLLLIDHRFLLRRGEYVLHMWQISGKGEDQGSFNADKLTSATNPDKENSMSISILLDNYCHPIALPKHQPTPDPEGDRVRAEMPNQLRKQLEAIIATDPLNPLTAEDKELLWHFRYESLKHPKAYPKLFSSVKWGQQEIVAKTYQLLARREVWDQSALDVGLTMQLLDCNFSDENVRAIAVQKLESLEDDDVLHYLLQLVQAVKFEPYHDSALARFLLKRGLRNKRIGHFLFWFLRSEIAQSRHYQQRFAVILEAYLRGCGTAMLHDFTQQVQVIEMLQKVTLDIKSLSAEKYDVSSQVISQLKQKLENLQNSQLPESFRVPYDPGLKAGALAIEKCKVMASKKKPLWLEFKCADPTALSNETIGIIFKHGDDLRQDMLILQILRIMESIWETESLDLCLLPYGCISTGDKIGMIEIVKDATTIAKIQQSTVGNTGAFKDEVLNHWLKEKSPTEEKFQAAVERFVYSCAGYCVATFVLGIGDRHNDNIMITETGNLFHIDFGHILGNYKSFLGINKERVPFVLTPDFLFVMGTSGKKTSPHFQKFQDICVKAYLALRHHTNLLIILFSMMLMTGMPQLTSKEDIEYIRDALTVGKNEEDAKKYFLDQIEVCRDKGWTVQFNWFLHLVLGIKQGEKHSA
- Assay Method Text: Fluorescence polarization assay for PI3K
- Format: biochemical
- Condition Notes: PI3 Kinase γ; read-out: PI3 Kinase γ IC50
- Experimental: This assay is used to determine the IC50 of compounds of the present invention as it identifies inhibitors of PI3 kinase by measuring inhibition. […] Stop/detector mix is prepared by mixing 4 μL Red detector and 1.6 μL or 2.0 μL GST-GRP with 1 mL Stop buffer, which results in 10 nM probe and 70 nM GST-GRP). […] The plates are read after 30-90 minutes keeping the red probe solutions dark. […] Plates are read on machines with filters for Tamra. […]
For each record, write down the corresponding pIC50.
Give bare numbers, as −log10 of the molar value.

INSERT INTO results (compound, recorded_result) VALUES
  ('CC(C)C(=O)N1CCC(n2ncc3c(N4CC5CCC(C4)O5)nc(-c4ccc(NC(=O)Nc5ccncc5)cc4)nc32)CC1', 5.62);

State the recorded pIC50 for every item in the following list.
1. O=C(Nc1ccc(-c2nc(N3CC4CCC(C3)O4)c3cnn(CC(F)(F)F)c3n2)cc1)Nc1cccnc1
2. CN1CCN(c2ccc(NC(=O)Nc3ccc(-c4nc(N5CC6CCC(C5)O6)c5cnn(CC(F)(F)F)c5n4)cc3)cn2)CC1
3. CN(C)CCn1ncc2c(N3CC4CCC(C3)O4)nc(-c3ccc(NC(=O)Nc4ccc(CO)cc4)cc3)nc21

1: 5.67; 2: 5.87; 3: 5.89

State the recorded pIC50 for every item in the following list.
1. CCn1ncc2c(N3CC4CCC(C3)O4)nc(-c3ccc(NC(=O)NCCCN)cc3)nc21
2. CCn1ncc2c(N3CC4CCC(C3)O4)nc(-c3ccc(NC(=O)Nc4ccc(OCCO)nc4)cc3)nc21
3. CCOC(=O)N1CCC(n2ncc3c(N4CC5CCC(C4)O5)nc(-c4ccc(NC(=O)Nc5ccn[nH]5)cc4)nc32)CC1
4. O=C(Nc1ccc(-c2nc(N3CC4CCC(C3)O4)c3cnn(C4CCCCO4)c3n2)cc1)Nc1cccnc1 (centres unmarked)

1. 5.02
2. 5.94
3. 5.05
4. 5.36

Reported pIC50 ( CCOC(=O)N1CCC(n2ncc3c(N4CC5CCC(C4)O5)nc(-c4ccc(NC(=O)Nc5ccccc5)cc4)nc32)CC1 ) = 5.37
